target: CyclinA2/CDK2 (Homo sapiens); construct: purchased CRELUX Protein Services; assay: Fluorescence Polarization (FP) competitive binding assay, Cyclin A2/Cdk2;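 note: plates equilibrated two hours at room temperature before polarization reading, IC50 fitted from eight-concentration compound titration curves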
*1 amine or outer side, *2 acyl side, *3 side chain or, on linkers, in order; H or OH if unused. Where a SMILES comes first, the peptide text is derived from it. Bridges are numbered along the chain shown (N, C = ends). [ ]: non-standard residue; d: D form. The star is where a group is joined. X127 = CN([C@@H](Cc1cc(F)ccc1-c1cnn(S(=O)(=O)C2CC2)c1)C(=O)[*:2])[*:1]; X16 = CN([C@@H](Cc1cc(Cl)ccc1-c1cnc2c(cnn2C)c1)C(=O)[*:2])[*:1]; NMehhhLys(Me) = CN([C@@H](CCCCCCCN(C)[*:3])C(=O)[*:2])[*:1]; X67 = Cc1c(-c2ccc(Cl)cc2C[C@@H](C(=O)[*:2])N(C)[*:1])cnn1C; cBuCO(3,3-F2-1-CF3) = O=C(C1(C(F)(F)F)CC(F)(F)C1)*; Pro(trans-4-F) = O=C(O)[C@@H]1C[C@@H](F)CN1; Gly(cPr) = N[C@H](C(=O)O)C1CC1
Observable: IC50 (µM)

{"Compound": "CC(C)C[C@@H]1NC(=O)[C@@H](N(C)C(=O)[C@@H](NC(=O)[C@@H]2C[C@@H](F)CN2C(=O)C2(C(F)(F)F)CC(F)(F)C2)C2CC2)CCCCCCCN(C)C(=O)[C@H](Cc2cc(F)ccc2-c2cnn(S(=O)(=O)C3CC3)c2)N(C)C1=O [Example 252] ({cBuCO(3,3-F2-1-CF3)}-[Pro(trans-4-F)][Gly(cPr)][NMehhhLys(Me)]L[X127]; lactam 3-C)", "Target system": "CyclinA2/CDK2 (Homo sapiens)", "Observable": "IC50", "Experimental result": 0.03}
{"Compound": "CC(C)C[C@@H]1NC(=O)[C@@H](N(C)C(=O)[C@@H](NC(=O)[C@@H]2C[C@@H](F)CN2C(=O)C2(C(F)(F)F)CC(F)(F)C2)C2CC2)CCCCCCCN(C)C(=O)[C@H](Cc2cc(Cl)ccc2-c2cnc3c(cnn3C)c2)N(C)C1=O [Example 250] ({cBuCO(3,3-F2-1-CF3)}-[Pro(trans-4-F)][Gly(cPr)][NMehhhLys(Me)]L[X16]; lactam 3-C)", "Target system": "CyclinA2/CDK2 (Homo sapiens)", "Observable": "IC50", "Experimental result": 0.03}
{"Compound": "Cc1c(-c2ccc(Cl)cc2C[C@H]2C(=O)N(C)CCCCCCC[C@H](N(C)C(=O)[C@@H](NC(=O)[C@@H]3C[C@@H](F)CN3C(=O)C3(C(F)(F)F)CC(F)(F)C3)C3CC3)C(=O)N[C@@H](CC(C)C)C(=O)N2C)cnn1C [Example 234] ({cBuCO(3,3-F2-1-CF3)}-[Pro(trans-4-F)][Gly(cPr)][NMehhhLys(Me)]L[X67]; lactam 3-C)", "Target system": "CyclinA2/CDK2 (Homo sapiens)", "Observable": "IC50", "Experimental result": 0.03}
